assay: qHTS RealTime-Glo MT Cell Viability Assay in HEK293 cells - 8 hour (AID 1224887); details: RealTime-Glo luminescence; series mostly up to 76.8 µM; also: top concentration of the series differs between compounds; nearly all actives have a fitted effect of over 50% in size
Inconclusive results are not listed. Active and inactive are the calls of the source. Calls follow the shape of the dose curve; as a rule, active = well fitted cell-killing curve with a large enough effect in the repeat runs; inconclusive = weak or mixed curves, or effect the other way; inactive = flat fitted curve, though single readings scatter.
Attribute measured: outcome

CC(C)c1ccc(C(C)C)cc1	inactive
NC(N)=S	inactive
CCCCCCCCCCCC(=O)N(C)CC(=O)O	inactive
CCCCCCCCCCCCCC(=O)O	inactive
CCCCCCCCO	inactive
CC(C)(C)NC[C@H](O)COc1nsnc1N1CCOCC1	inactive

Req: Specify measured outcome for CC/C=C(\C(=O)N[C@@H]1C(=O)N2C(C(=O)OCOC(=O)C(C)(C)C)=C(COC(N)=O)CS[C@H]12)c1csc(N)n1 .
Resp: inactive

Req: Give outcome for COCN(COC)c1nc(N(COC)COC)nc(N(COC)COC)n1
Resp: inactive

Cited source for all entries: PubChem BioAssay (Tox21)
